# growth per record follows
Tested on: SF-295 CNS
Assay: NCI-60 one-dose screen, 48 h (100 = growth as untreated, 0 = no growth, -100 = all killed)
Conditions: 10 µM
About 83,000 compounds went through this panel and 20% of them were active in at least one assay; those are over-represented in the sample as a whole. Where a SMILES comes first, the peptide text is derived from it. Bridges are numbered along the chain shown (N, C = ends). [ ]: non-standard residue; d: D form. The star is where a group is joined. ξ: configuration not given here. ξNMePhe(4-NMe2) = CNC(Cc1ccc(N(C)C)cc1)C(=O)O; Picolinoyl(3-OH) = O=C(c1ncccc1O)*; ξPip(4-oxo) = O=C1CCNC(C(=O)O)C1; Phg = N[CH](C(=O)O)c1ccccc1; Abu = CC[CH](N)C(=O)O

- Compound: "CCC(C)(C)C1CCC(O)CC1 (centres undefined)"
  Target of assay: "SF-295 CNS"
  Result units: "%"
  growth: 114
- Compound: "Cc1cc(C(C)(C)C)cc(C)c1Br"
  Target of assay: "SF-295 CNS"
  Result units: "%"
  growth: 103
- Compound: "Cc1nc2c(ccc3ccccc32)s1"
  Target of assay: "SF-295 CNS"
  Result units: "%"
  growth: 104
- Compound: "O=C1C[C@H](c2ccccc2)[C@H](c2ccccc2)C1"
  Target of assay: "SF-295 CNS"
  Result units: "%"
  growth: 108
- Compound: "O=C1NC(=O)C2C(=O)NC(=O)C1C21CCc2ccccc21 (centres undefined)"
  Target of assay: "SF-295 CNS"
  Result units: "%"
  growth: 102
- Compound: "Nc1nc2c(c(-c3nc(N)nc4c3CCc3ccccc3-4)n1)CCc1ccccc1-2"
  Target of assay: "SF-295 CNS"
  Result units: "%"
  growth: 99.5
- Compound: "CC(=O)OC1CC2C(C)(C)OC3CC(=O)OCC32C2CCC3(C)C(=CCC3c3ccoc3)C12C (centres undefined)"
  Target of assay: "SF-295 CNS"
  Result units: "%"
  growth: 107
- Compound: "N#Cc1ccc(OC(=O)Nc2ccc(Cl)c(Cl)c2)cc1"
  Target of assay: "SF-295 CNS"
  Result units: "%"
  growth: 41.4
- Compound: "c1ccc(Cc2ccccc2)cc1"
  Target of assay: "SF-295 CNS"
  Result units: "%"
  growth: 110
- Compound: "N#CSc1cc(S(N)(=O)=O)ccc1N"
  Target of assay: "SF-295 CNS"
  Result units: "%"
  growth: 120
- Compound: "CNC(=O)c1ccccc1CC1(O)c2ccccc2Oc2ccccc21"
  Target of assay: "SF-295 CNS"
  Result units: "%"
  growth: 36.8
- Compound: "O=C(NCc1ccco1)Nc1c(Cl)cc(Cl)cc1Cl"
  Target of assay: "SF-295 CNS"
  Result units: "%"
  growth: 93.5
- Compound: "Oc1ccc(N=Nc2ccc(Br)cc2)c(O)c1"
  Target of assay: "SF-295 CNS"
  Result units: "%"
  growth: 15.4
- Compound: "CCN(CC)CCNc1ccc(CO)c2sc3ccccc3c(=O)c12"
  Target of assay: "SF-295 CNS"
  Result units: "%"
  growth: 44.9
- Compound: "CC(=O)Nc1ccc(NC(C)=O)c2c1C(=O)c1ccccc1C2=O"
  Target of assay: "SF-295 CNS"
  Result units: "%"
  growth: 99.8
- Compound: "c1csc(-c2cc(-c3cc(-c4cccs4)[nH]n3)n[nH]2)c1"
  Target of assay: "SF-295 CNS"
  Result units: "%"
  growth: 96.8
- Compound: "CC(=O)c1cc2c(cc1F)C(C)(C)CCC2(C)C"
  Target of assay: "SF-295 CNS"
  Result units: "%"
  growth: 120
- Compound: "Cc1ccc(C)n1-c1ccsc1C(=O)NNC(=O)C(Cl)Cl"
  Target of assay: "SF-295 CNS"
  Result units: "%"
  growth: 101
- Compound: "CC(C)(C)c1cc(O)c(C(C)(C)C)cc1O"
  Target of assay: "SF-295 CNS"
  Result units: "%"
  growth: 85.7
- Compound: "O=C(O)CCC(NC(=O)OCc1ccccc1)C(=O)O (centres undefined)"
  Target of assay: "SF-295 CNS"
  Result units: "%"
  growth: 102
- Compound: "CC(=O)Nc1cccc(Cl)c1C"
  Target of assay: "SF-295 CNS"
  Result units: "%"
  growth: 105
- Compound: "COC(=O)Nc1cccc(Cl)c1OC"
  Target of assay: "SF-295 CNS"
  Result units: "%"
  growth: 81.8
- Compound: "CCO/C=C1\\SC(=S)N(c2cccc(C)c2)C1=O"
  Target of assay: "SF-295 CNS"
  Result units: "%"
  growth: 97
- Compound: "CCC1NC(=O)C(NC(=O)c2ncccc2O)C(C)OC(=O)C(c2ccccc2)NC(=O)C2CC(=O)CCN2C(=O)C(Cc2ccc(N(C)C)cc2)N(C)C(=O)C2CCCN2C1=O (centres undefined) (tested in a mixture with another compound) ({Picolinoyl(3-OH)}-T[Abu]P[ξNMePhe(4-NMe2)][ξPip(4-oxo)][Phg]; ester 1-C; configuration not given here)"
  Target of assay: "SF-295 CNS"
  Result units: "%"
  growth: 20.7
- Compound: "CC1(O)CCCCC1O (centres undefined)"
  Target of assay: "SF-295 CNS"
  Result units: "%"
  growth: 110
- Compound: "N=c1c(C(=O)OCc2ccccc2)ncc(CCl)n1O"
  Target of assay: "SF-295 CNS"
  Result units: "%"
  growth: 124
- Compound: "CCCCCCCCOC(=O)c1ccccn1"
  Target of assay: "SF-295 CNS"
  Result units: "%"
  growth: 133
- Compound: "Cc1cc(N)c(S(=O)(=O)O)c(N)c1"
  Target of assay: "SF-295 CNS"
  Result units: "%"
  growth: 96
- Compound: "O=C(O)CCC(=O)OC(C1CO1)C(OC(=O)CCC(=O)O)C1CO1 (centres undefined)"
  Target of assay: "SF-295 CNS"
  Result units: "%"
  growth: 92.3
